System: BT-20, U-251, and HCT116
Test: MTT cytotoxicity assay, three cancer cell lines stated together
Assay type: cell-based
Settings: range across the three cancer cell lines, read-out: IC50 values, range over BT-20, U-251 and HCT116
pIC50: −log10 of the molar value.
MEASUREMENT NAME: pIC50

# query: pIC50 of entry `O=C(COc1cc(O)c2c(=O)cc(-c3ccccc3)oc2c1)N/N=C/c1ccc(O)c(O)c1O`
4.60 to 5.00

---

The compounds listed here are annotated with their pIC50.
Tested on: U-251
Assay: MTT cytotoxicity assay, U-251
Type: cell-based
Details: Homo sapiens, mean ± SEM of three independent experiments in triplicate, read-out: IC50 Brain Cancer U-251
Protocol: A panel of cancer cell lines, including breast (MDA-MB-231, BT20), brain (U251), and colon (HCT116), as well as a normal cell line (human mammary epithelial cells: HMECs), were grown as adherent monolayers in flasks with Dulbecco’s Modified Eagle Medium (DMEM), supplemented with 10% fetal bovine serum (FBS) and 1% penicillin and streptomycin in a humidified incubator with 5% CO2 at 37 °C. […]
The meaning of pIC50 here: minus log10 of the concentration in molar units.

Below, 3 compounds whose answers are already recorded.
O=C(COc1cc(O)c2c(=O)cc(-c3ccccc3)oc2c1)N/N=C/c1ccc(O)cc1O :: 5.12
O=C(COc1cc(O)c2c(=O)cc(-c3ccccc3)oc2c1)N/N=C/c1cc([N+](=O)[O-])ccc1O :: 4.95
O=C(COc1cc(O)c2c(=O)cc(-c3ccccc3)oc2c1)N/N=C/c1ccccc1O :: 5.06

Now let's try a different one.
Please tell me: pIC50 of `O=C(COc1cc(O)c2c(=O)cc(-c3ccccc3)oc2c1)N/N=C/c1ccc(O)c(O)c1O` , system U-251?
4.60
